# key: entry, value: IC50; p-TrkA level by AlphaLISA in NGF-stimulated NIH3T3-TrkA stable cell line
# TARGET DESC: TrkA protein on HEK-293T-TrkA cells or NIH-3T3-TrkA cells (human, UniProt P04629 33-796)
# Sequence (P04629 33-796): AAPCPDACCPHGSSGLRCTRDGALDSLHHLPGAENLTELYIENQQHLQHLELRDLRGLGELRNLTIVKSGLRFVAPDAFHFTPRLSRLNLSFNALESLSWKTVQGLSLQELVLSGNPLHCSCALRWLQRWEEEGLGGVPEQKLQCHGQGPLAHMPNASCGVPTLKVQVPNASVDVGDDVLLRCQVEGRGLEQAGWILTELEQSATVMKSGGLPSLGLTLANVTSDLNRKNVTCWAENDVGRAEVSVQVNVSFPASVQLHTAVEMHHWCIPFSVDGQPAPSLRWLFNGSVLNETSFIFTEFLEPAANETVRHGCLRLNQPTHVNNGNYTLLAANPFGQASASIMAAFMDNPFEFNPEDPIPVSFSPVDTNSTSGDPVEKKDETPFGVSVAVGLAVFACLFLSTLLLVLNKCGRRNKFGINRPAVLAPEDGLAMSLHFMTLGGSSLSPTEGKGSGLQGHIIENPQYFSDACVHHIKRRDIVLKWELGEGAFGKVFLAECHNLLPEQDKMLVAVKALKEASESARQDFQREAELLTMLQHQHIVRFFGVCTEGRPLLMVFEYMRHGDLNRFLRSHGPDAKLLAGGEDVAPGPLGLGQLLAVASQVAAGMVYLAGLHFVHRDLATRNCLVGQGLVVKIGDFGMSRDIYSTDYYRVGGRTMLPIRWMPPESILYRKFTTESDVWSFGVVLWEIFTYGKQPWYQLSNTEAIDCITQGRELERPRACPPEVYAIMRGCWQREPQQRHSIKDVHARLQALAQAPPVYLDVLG
# PROTOCOL: cell-based or functional assay

Examples with answers:
BINDER | TEST VALUE
4H4 chimeric antibody (antibody, human IgG4 S228P, kappa, F234A L235A, V domains shown, expressed in CHO cells) VH: EVQLQQSGPELVKPGASMKISCKASGYSFTGYTMNWVKQSHGKNLEWIGLINPYNGGTRYNQKFKGKATLTVDKSSSTAYMELLSLTSEDSAVYYCASSSYRNDGNWYFDVWGAGTTVTVSS VL: DIVMTQSPAIMSASPGEKVTMTCSASSSVSYMHWYQQKSGTSPKRWIYDTSKLASGVPARFSGSGSGTSYSLTISSMETEDAATYYCQQWSSNPPTFGGGTKLELKR | 0.129 µg/mL
21E5 chimeric antibody (antibody, human IgG4 S228P, kappa, F234A L235A, V domains shown, expressed in CHO cells) VH: QVQLQQSGAELMKPGASMKISCKATGYTFSTYWIEWVKQRPGHGLEWIGENLPGRHITNYNEKFKGKATFTADTSSNTAYMQLSSLTSEDSAVYYCARGRGTYYFDYWGQGTPLTVSS VL: DIVMTQAAFSTPVTLGTSASISCRSSQSLLHSNGITYLYWYLQKPGQSPQLLIYQMSNLASGVPDRFSSSGSGTDFTLRISRVEAEDVGVYYCAQNLEFPFTFGSGTKLEIKR | 0.0856 µg/mL

// below: IC50; p-TrkA level by AlphaLISA in NGF-stimulated NIH3T3-TrkA stable cell line requested for another binder
Notebook: MNAC13 (anti-TrKA monoclonal antibody, positive control) (antibody, human IgG4 S228P, kappa, F234A L235A, V domains shown) VH: EVQLLESGGGLVQPGGSLRLSCAASGFTFSTYTMSWARQAPGKGLEWVAYISKGGGSTYYPDTVKGRFTISRDNSKNTLYLQMNSLRAEDSAVYYCARGAMFGNDFFFPMDRWGQGTLVTVSS VL: DIVLTQSPSSLSASVGDRVTITCSASSSVSYMHWYQQKPGQAPKLLIYTTSNLASGVPSRFSGSGSGTDYTLTISSLQPEDVATYYCHQWSSYPWTFGGGTKVEIKR , IC50; p-TrkA level by AlphaLISA in NGF-stimulated NIH3T3-TrkA stable cell line read as 0.16 µg/mL

Each recorded value in this set is attributed to patent US20220204630A1.
